# system-tested: Bile acid receptor (Homo sapiens)
# procedure-summary: Induction of SRC1 coactivator peptide binding to ligand binding domain of human FXR by FRET assay relative to GW-4064
# Parameters: concentration or dose not given beside the values
readout-kind: Activity (%)

Below, 5 molecules whose answers are already recorded.
Reported Activity of CC(C)c1onc(-c2c(Cl)cccc2Cl)c1CNc1nc2ccc(-c3cccc(C(=O)O)c3)cc2s1 : 91

Data point: CC(C)c1onc(-c2c(Cl)cccc2Cl)c1CCc1nc2cc(-c3cccc(C(=O)O)c3)ccc2o1 ; Activity = 41

Value of measured Activity for the entry CC(C)c1onc(-c2c(Cl)cccc2Cl)c1COc1ccc2c(c1)ncn2Cc1cccc(C(=O)O)c1 : 38

Recorded result, CC(C)c1onc(-c2c(Cl)cccc2Cl)c1COc1ccc2sc(-c3cccc(C(=O)O)c3)cc2c1 , Activity: 90

For CC(C)c1onc(-c2c(Cl)cccc2Cl)c1COc1ccc2c(c1)CN(c1cccc(C(=O)O)c1)C2=O the molecule record lists Activity as 59

1: CC(C)c1onc(-c2c(Cl)cccc2Cl)c1COc1ccc2c(Cc3cccc(C(=O)O)c3)c[nH]c2c1
2: CC(C)c1onc(-c2c(Cl)cccc2Cl)c1COc1ccc2[nH]cc(Cc3cccc(C(=O)O)c3)c2c1
Ask: For the two items 1 and 2 , which reports the higher Activity value? I would appreciate it if you answered with the label of your choice.
Reply: 1
(1: 81%, 2: 25%)

----------
# system-tested: Bile acid receptor (Homo sapiens) (UniProt Q96RI1)
# procedure-summary: Induction of SRC1 coactivator peptide binding to ligand binding domain of human FXR by FRET assay relative to GW-4064
# Set-up: concentration or dose not given beside the values
readout-kind: Activity (%)

For reference, reported Activity for CC(C)c1onc(-c2c(Cl)cccc2Cl)c1COc1ccc2cc(-c3ccc(C(=O)O)cc3)sc2c1 stands at 95

1: CC(C)c1onc(-c2c(Cl)cccc2Cl)c1COc1ccc2cc(-c3ccc(C(=O)O)cc3)ccc2c1
2: CC(C)c1onc(-c2c(Cl)cccc2Cl)c1CCc1nc2cccc(Nc3cccc(C(=O)O)c3)c2o1
Ask: Which one would you say has the larger Activity value: 1 , or 2 ? Answer = label.
Reply: 1
(1: 68%, 2: 19%)

----------
# system-tested: Bile acid receptor (Homo sapiens) (UniProt Q96RI1)
# procedure-summary: Increase in human FXR-mediated transient transcription of luciferase reporter gene transfected in african green monkey CV1 cells relative to GW-4064
# Type: cell-based
# Set-up: concentration or dose not given beside the values
# experimental-setup: CV-1
readout-kind: Activity (%)

Activity in this record for CC(C)c1onc(-c2c(Cl)cccc2Cl)c1COc1ccc2sc(-c3ccc(C(=O)O)cc3)cc2c1 : 89

I: CC(C)c1onc(-c2c(Cl)cccc2Cl)c1COc1ccc2[nH]c(-c3cccc(C(=O)O)c3)cc2c1
II: CC(C)c1onc(-c2c(Cl)cccc2Cl)c1COc1ccc2c(ccn2C(=O)c2cccc(C(=O)O)c2)c1
Ask: For I and II , which recorded Activity is lower? Reply briefly: the label of your chosen item.
Reply: II

----------
# system-tested: Bile acid receptor (Homo sapiens)
# procedure-summary: Induction of SRC1 coactivator peptide binding to ligand binding domain of human FXR by FRET assay
pEC50: −log10 of the molar value.
readout-kind: pEC50

Looking up CC(C)c1onc(-c2c(Cl)cccc2Cl)c1COc1ccc2sc(-c3cccc(C(=O)O)c3)cc2c1 , I found its pEC50 recorded as 7.26

Input CC(C)c1onc(-c2c(Cl)cccc2Cl)c1COc1ccc2sc(-c3ccc(C(=O)O)cc3)cc2c1 . Output pEC50: 6.55

The recorded pEC50 for CC(C)c1onc(-c2c(Cl)cccc2Cl)c1COc1ccc2c(c1)CC(=O)N(c1cccc(C(=O)O)c1)C2 is 5.96

For CC(C)c1onc(-c2c(Cl)cccc2Cl)c1COc1ccc2c(c1)ncn2Cc1cccc(C(=O)O)c1 the molecule record lists pEC50 as 5.85

P: CC(C)c1onc(-c2c(Cl)cccc2Cl)c1CNc1nc2ccc(-c3cccc(C(=O)O)c3)cc2s1
Q: CC(C)c1onc(-c2c(Cl)cccc2Cl)c1COc1ccc2c(Nc3cccc(C(=O)O)c3)cccc2c1
R: CC(C)c1onc(-c2c(Cl)cccc2Cl)c1COc1ccc2c(Cc3cccc(C(=O)O)c3)c[nH]c2c1
S: CC(C)c1onc(-c2c(Cl)cccc2Cl)c1CCc1nc2cccc(Nc3cccc(C(=O)O)c3)c2o1
Ask: Put the items in sequence by pEC50, from largest down. // rank by listing labels in the order requested
Reply: Q, R, P, S
(Q: 6.49, R: 6.23, P: 6.02, S: 5.77)

----------
# system-tested: Bile acid receptor (Homo sapiens)
# procedure-summary: Induction of SRC1 coactivator peptide binding to ligand binding domain of human FXR by FRET assay relative to GW-4064
# Set-up: concentration or dose not given beside the values
readout-kind: Activity (%)

Input CC(C)c1onc(-c2c(Cl)cccc2Cl)c1COc1ccc2c(ccn2S(=O)(=O)c2cccc(C(=O)O)c2)c1 . Output Activity: 87

For reference, reported Activity for CC(C)c1onc(-c2c(Cl)cccc2Cl)c1COc1ccc2c(ccn2Cc2ccc(C(=O)O)cc2)c1 stands at 80

# molecule CC(C)c1onc(-c2c(Cl)cccc2Cl)c1COc1ccc2[nH]c(-c3cccc(C(=O)O)c3)cc2c1 ; its Activity = 81

Sample CC(C)c1onc(-c2c(Cl)cccc2Cl)c1COc1ccc2sc(-c3ccc(C(=O)O)cc3)cc2c1 ; Activity observed: 80

# Activity of CC(C)c1onc(-c2c(Cl)cccc2Cl)c1COc1ccc2c(Nc3cccc(C(=O)O)c3)cccc2c1 = 95

Record CC(C)c1onc(-c2c(Cl)cccc2Cl)c1COc1ccc2nc(-c3cccc(C(=O)O)c3)sc2c1 . Reported Activity: 72

# Activity of CC(C)c1onc(-c2c(Cl)cccc2Cl)c1COc1ccc2c(ccn2Cc2cccc(C(=O)O)c2)c1 = 80

----------
# system-tested: Bile acid receptor (Homo sapiens)
# Sequence (whole entry): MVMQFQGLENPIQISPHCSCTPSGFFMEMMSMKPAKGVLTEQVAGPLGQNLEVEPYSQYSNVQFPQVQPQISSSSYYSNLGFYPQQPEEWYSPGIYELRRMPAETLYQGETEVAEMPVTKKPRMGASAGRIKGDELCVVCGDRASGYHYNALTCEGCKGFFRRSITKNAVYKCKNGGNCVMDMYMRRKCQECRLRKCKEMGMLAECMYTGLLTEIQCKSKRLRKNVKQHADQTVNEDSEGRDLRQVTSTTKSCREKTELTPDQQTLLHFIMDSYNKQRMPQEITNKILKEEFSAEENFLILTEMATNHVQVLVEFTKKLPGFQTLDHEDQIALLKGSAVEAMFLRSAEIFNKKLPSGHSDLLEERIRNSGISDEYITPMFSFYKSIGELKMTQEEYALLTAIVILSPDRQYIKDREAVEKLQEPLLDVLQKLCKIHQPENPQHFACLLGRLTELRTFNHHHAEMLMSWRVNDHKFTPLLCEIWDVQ
# procedure-summary: Induction of SRC1 coactivator peptide binding to ligand binding domain of human FXR by FRET assay relative to GW-4064
# Design: concentration or dose not given beside the values
readout-kind: Activity (%)

The following compounds have reported results that may help.
Entry CC(C)c1onc(-c2c(Cl)cccc2Cl)c1COc1ccc2c(ccn2C(=O)c2cccc(C(=O)O)c2)c1 , Activity reported as 68

Briefly, Activity measured for CC(C)c1onc(-c2c(Cl)cccc2Cl)c1COc1ccc2cc(-c3cccc(C(=O)O)c3)sc2c1 : 92

The compound listed as CC(C)c1onc(-c2c(Cl)cccc2Cl)c1COc1ccc2cc(-c3cccc(C(=O)O)c3)ccc2c1 has a reported Activity of 88

P: CC(C)c1onc(-c2c(Cl)cccc2Cl)c1COc1ccc2c(c1)CCN(c1cccc(C(=O)O)c1)C2=O
Q: CC(C)c1onc(-c2c(Cl)cccc2Cl)c1COc1ccc2c(c1)CC(=O)N(c1cccc(C(=O)O)c1)C2
Ask: Hi team, can someone confirm which has the larger Activity: P or Q ? Thanks. Identify your pick by its label.
Reply: Q
(Q: 75%, P: 52%)

----------
# system-tested: Bile acid receptor (Homo sapiens)
# procedure-summary: Increase in human FXR-mediated transient transcription of luciferase reporter gene transfected in african green monkey CV1 cells relative to GW-4064
# Format: cell-based
# Parameters: concentration or dose not given beside the values
# experimental-setup: CV-1
readout-kind: Activity (%)

1: CC(C)c1onc(-c2c(Cl)cccc2Cl)c1COc1ccc2c(c1)CCN(c1cccc(C(=O)O)c1)C2=O
2: CC(C)c1onc(-c2c(Cl)cccc2Cl)c1COc1ccc2c(c1)CN(c1cccc(C(=O)O)c1)C2=O
Ask: Lower value for measured Activity? Options: 1 , 2 To answer, give the label that identifies your chosen option.
Reply: 2
(2: 61%, 1: 112%)

----------
# system-tested: Bile acid receptor (Homo sapiens) (UniProt Q96RI1)
# Sequence (whole entry): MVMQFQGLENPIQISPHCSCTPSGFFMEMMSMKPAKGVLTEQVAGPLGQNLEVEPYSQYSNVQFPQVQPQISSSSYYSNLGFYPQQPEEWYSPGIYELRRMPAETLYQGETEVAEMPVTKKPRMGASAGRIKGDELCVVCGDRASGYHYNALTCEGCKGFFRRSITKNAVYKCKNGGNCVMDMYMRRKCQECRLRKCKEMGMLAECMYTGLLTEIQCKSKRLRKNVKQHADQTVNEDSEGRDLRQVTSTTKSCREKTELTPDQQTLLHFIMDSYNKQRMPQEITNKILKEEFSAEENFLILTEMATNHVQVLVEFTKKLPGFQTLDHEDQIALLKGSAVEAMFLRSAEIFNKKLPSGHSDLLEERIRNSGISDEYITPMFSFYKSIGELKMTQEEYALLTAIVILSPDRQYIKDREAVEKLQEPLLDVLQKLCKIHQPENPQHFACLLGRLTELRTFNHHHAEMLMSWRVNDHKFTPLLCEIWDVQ
# procedure-summary: Increase in human FXR-mediated transient transcription of luciferase reporter gene transfected in african green monkey CV1 cells relative to GW-4064
# Assay type: cell-based
# Set-up: concentration or dose not given beside the values
# experimental-setup: CV-1
readout-kind: Activity (%)

For this compound ( CC(C)c1onc(-c2c(Cl)cccc2Cl)c1COc1ccc2cc(-c3cccc(C(=O)O)c3)sc2c1 ), measured Activity is 93

For this compound ( CC(C)c1onc(-c2c(Cl)cccc2Cl)c1COc1ccc2cc(-c3cccc(C(=O)O)c3)ccc2c1 ), measured Activity is 103

Quick note, Activity for CC(C)c1onc(-c2c(Cl)cccc2Cl)c1COc1ccc2c(ccn2Cc2ccc(C(=O)O)cc2)c1 landed at 79

Value source: ChEMBL document CHEMBL1154026
